Tgt: AktK (Homo sapiens, UniProt P31749)
Sequence (P31749 whole entry): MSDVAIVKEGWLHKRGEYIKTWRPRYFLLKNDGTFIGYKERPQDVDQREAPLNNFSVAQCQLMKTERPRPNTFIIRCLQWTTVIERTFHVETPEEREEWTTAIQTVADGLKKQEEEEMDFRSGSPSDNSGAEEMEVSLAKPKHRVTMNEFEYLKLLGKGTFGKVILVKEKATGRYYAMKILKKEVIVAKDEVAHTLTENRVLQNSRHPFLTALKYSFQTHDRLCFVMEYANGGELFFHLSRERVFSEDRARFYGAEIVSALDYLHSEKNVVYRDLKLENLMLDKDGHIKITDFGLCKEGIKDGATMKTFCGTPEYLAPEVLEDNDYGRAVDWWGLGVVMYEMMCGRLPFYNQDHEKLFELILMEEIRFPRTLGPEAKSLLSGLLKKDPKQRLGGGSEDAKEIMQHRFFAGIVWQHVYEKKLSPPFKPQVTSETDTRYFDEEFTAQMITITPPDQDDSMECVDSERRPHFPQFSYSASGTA
Run description: Luciferase-coupled chemiluminescence kinase assay (ATP consumption)
Format: biochemical
Experimental conditions: read-out: AKT-1 IC50
Provide the recorded IC50 for the entries that follow.

Inquiry: Would you kindly share the measured IC50 for FC(F)(F)c1cccc(N2CCN(c3ncnc4[nH]cnc34)CC2)c1 [Entry 314] ?
Reply text: ≥ 10 µM

Inquiry: Quick check: IC50 of Cc1ccc(Cl)cc1N1CCN(c2ncnc3[nH]nc(-c4cccc(C(=O)O)c4)c23)CC1 [Entry 340] ?
Reply text: 1 to 10 µM

Inquiry: Which IC50 is listed for FC(F)(F)c1cccc(N2CCN(c3ncnc4[nH]ccc34)CC2)c1 [Entry 305] ?
Reply text: ≥ 10 µM

Inquiry: Would you kindly share the measured IC50 for COc1cccc(-c2n[nH]c3ncnc(N4CCN(c5cc(Cl)ccc5C)CC4)c23)c1 [Entry 365] ?
Reply text: 1 to 10 µM

Inquiry: GET /values?readout=IC50&item= Cc1ccc(Cl)cc1N1CCN(c2ncnc3[nH]nc(C)c23)CC1 [Entry 321]
Reply text: 1 to 10 µM

Inquiry: Fill blank: measured IC50 of the molecule Cc1ccc(Cl)cc1N1CCN(c2ncnc3[nH]nc(-c4ccc(OCCCN(C)C)cc4)c23)CC1 [Entry 380] is ____.
Reply text: 1 to 10 µM

Inquiry: Would you mind telling me what IC50 value was observed for Fc1ccccc1N1CCN(c2ncnc3[nH]ccc23)CC1 [Entry 313] ?
Reply text: ≥ 10 µM

Inquiry: Find the recorded IC50 belonging to COc1ccc(N2CCN(c3ncnc4[nH]ccc34)CC2)cc1 [Entry 304] and report it.
Reply text: ≥ 10 µM

Inquiry: I would be grateful if you could share the reported IC50 for COc1ccccc1N1CCN(c2ncnc3[nH]ccc23)CC1 [Entry 302] .
Reply text: ≥ 10 µM
